Data credit: paper PMC10108266

Experiment: JACKPOT2 single-ascending-dose plasma PK, healthy participants in USA
Assay type: in vivo, human
Settings: human, plasma, oral; single dose 150 mg; median (min, max); read-out: t1/2 (converted)
Excerpt: This was a Phase I, randomized, double-blinded, placebo-controlled study to assess the safety, tolerability, and PK of golidocitinib in healthy participants in the USA. This study included two parts: part A (single-ascending-dose [SAD] and food effect [FE] cohorts) and part B (multiple-ascending-dose [MAD] cohorts). Please refer to Figure 1 for the study flowchart. A total of 42 and 24 healthy participants were enrolled in part A and part B, respectively. […]

Smiles Record: COc1nn(C)cc1Nc1nccc(-c2c[nH]c3c(NC(=O)[C@@H](C)N4CCN(C)CC4)cccc23)n1
half-life [min]: 2800
